test method notes: limiting solubility in liquid-crystalline mixtures at 20° C.
Format: physicochemical
run conditions: ZK-1282, 20° C.

| compound | Solubility (limiting) |
| --- | --- |
| CCCCCc1cc(NC(=O)c2ccc(CCCC)cc2)c2c(c1OC(=O)c1ccc(CCCC)cc1)C(=O)c1c(OC(=O)c3ccc(CCCC)cc3)c(CCCCC)cc(NC(=O)c3ccc(CCCC)cc3)c1C2=O | 4.0 mass % |
| CCCCCC1CCC(c2ccc(C(=O)Nc3cc(CCCC)c(O)c4c3C(=O)c3c(NC(=O)c5ccc(C6CCC(CCCCC)CC6)cc5)cc(CCCC)c(OC(=O)CCC)c3C4=O)cc2)CC1 (stereo not shown) | 1.5 mass % |
| CCCCCC1CCC(c2ccc(C(=O)Nc3ccc(O)c4c3C(=O)c3c(NC(=O)c5ccc(C6CCC(CCCCC)CC6)cc5)cc(CCCC)c(O)c3C4=O)cc2)CC1 (stereo not shown) | 1.0 mass % |
| CCCCCC1CCC(c2ccc(C(=O)Nc3cc(CCCC)c(O)c4c3C(=O)c3c(NC(=O)c5ccc(C6CCC(CCCCC)CC6)cc5)cc(CCCC)c(OC(=O)C5CCC(CCCC)CC5)c3C4=O)cc2)CC1 (stereo not shown) | 2.7 mass % |
